The reported numbers originate from ChEMBL document CHEMBL5120832.

Experiment: Cytotoxicity against human MCF-10A cells assessed as reduction in cell viability measured after 24 hrs by MTT assay
Format: toxicity, cell-based
readoutLabel: CC50 at 24 h (µM)

> print(dat)
                                  smilesrepr  relation  resultnumber
 1  FC(F)(F)c1ccc(/C=C/c2nc(Cn3ccc4cc(-c5cccc(Br)c5)ccc43)co2)cc1         =           5.2
 2  Cc1ccccc1NCc1coc(/C=C/c2ccc(C(F)(F)F)cc2)n1         >            50
 3  Fc1ccccc1NCc1coc(/C=C/c2ccc(C(F)(F)F)cc2)n1         =          6.77
 4  Fc1ccc(-c2ccc3c(ccn3Cc3coc(/C=C/c4ccc(C(F)(F)F)cc4)n3)c2)cc1         =          28.2
 5  FC(F)(F)c1ccc(/C=C/c2nc(CNc3cccc(Br)c3)co2)cc1         =          11.9
 6  Fc1cccc(-c2ccc3c(ccn3Cc3coc(/C=C/c4ccc(C(F)(F)F)cc4)n3)c2)c1         =          19.3
 7  Fc1cccc(NCc2coc(/C=C/c3ccc(C(F)(F)F)cc3)n2)c1         >            50
 8  COc1ccc(NCc2coc(/C=C/c3ccc(C(F)(F)F)cc3)n2)cc1         >            50
 9  FC(F)(F)c1ccc(/C=C/c2nc(Cn3ccc4cc(-c5cccc(Cl)c5)ccc43)co2)cc1         =          22.5
10  FC(F)(F)c1ccc(/C=C/c2nc(Cn3ccc4cc(-c5ccc(Br)cc5)ccc43)co2)cc1         =          9.21
11  Cc1ccc(-c2ccc3c(ccn3Cc3coc(/C=C/c4ccc(C(F)(F)F)cc4)n3)c2)cc1         >            50
12  FC(F)(F)c1ccc(/C=C/c2nc(CNc3cccc(Cl)c3)co2)cc1         =          22.1
13  Fc1ccc(NCc2coc(/C=C/c3ccc(C(F)(F)F)cc3)n2)cc1         =          45.5
14  FC(F)(F)c1ccc(/C=C/c2nc(CNc3ccccc3Br)co2)cc1         =          19.4
15  Fc1ccccc1-c1ccc2c(ccn2Cc2coc(/C=C/c3ccc(C(F)(F)F)cc3)n2)c1         =          12.5
16  Cc1cccc(NCc2coc(/C=C/c3ccc(C(F)(F)F)cc3)n2)c1         =          38.1
17  FC(F)(F)c1ccc(/C=C/c2nc(Cn3ccc4cc(-c5ccccc5)ccc43)co2)cc1         =          13.3
18  FC(F)(F)c1ccc(/C=C/c2nc(Cn3ccc4cc(-c5ccc(Cl)cc5)ccc43)co2)cc1         =          9.55
19  FC(F)(F)c1ccc(/C=C/c2nc(CNc3ccccc3)co2)cc1         =          6.57
20  Cc1ccccc1-c1ccc2c(ccn2Cc2coc(/C=C/c3ccc(C(F)(F)F)cc3)n2)c1         >            50
21  COc1ccc(-c2ccc3c(ccn3Cc3coc(/C=C/c4ccc(C(F)(F)F)cc4)n3)c2)cc1         =          16.7
22  COc1ccccc1NCc1coc(/C=C/c2ccc(C(F)(F)F)cc2)n1         >            50
23  Cc1cccc(-c2ccc3c(ccn3Cc3coc(/C=C/c4ccc(C(F)(F)F)cc4)n3)c2)c1         >            50
24  FC(F)(F)c1ccc(/C=C/c2nc(CNc3ccccc3Cl)co2)cc1         =          12.7
25  COc1cccc(-c2ccc3c(ccn3Cc3coc(/C=C/c4ccc(C(F)(F)F)cc4)n3)c2)c1         =          26.5
26  FC(F)(F)c1ccc(/C=C/c2nc(Cn3ccc4cc(-c5ccccc5Br)ccc43)co2)cc1         =          13.2
27  Cc1ccc(NCc2coc(/C=C/c3ccc(C(F)(F)F)cc3)n2)cc1         =          35.4
28  FC(F)(F)c1ccc(/C=C/c2nc(CNc3ccc(Cl)cc3)co2)cc1         =          18.3
29  FC(F)(F)c1ccc(/C=C/c2nc(CNc3ccc(Br)cc3)co2)cc1         =          18.4
30  FC(F)(F)c1ccc(/C=C/c2nc(COc3ccc(CCCCn4ccnn4)cc3)co2)cc1         =          11.3
31  COc1ccccc1-c1ccc2c(ccn2Cc2coc(/C=C/c3ccc(C(F)(F)F)cc3)n2)c1         =          33.1
32  FC(F)(F)c1ccc(/C=C/c2nc(Cn3ccc4cc(-c5ccccc5Cl)ccc43)co2)cc1         =          16.8
33  COc1cccc(NCc2coc(/C=C/c3ccc(C(F)(F)F)cc3)n2)c1         >            50
